biological target: Voltage-dependent T-type calcium channel subunit alpha-1G (Homo sapiens); experiment: Inhibition of T-type alpha1G calcium channel expressed in HEK293 cells assessed as Kcl-induced depolarization at 10 uM; type: cell-based
Sequence (O43497 whole entry): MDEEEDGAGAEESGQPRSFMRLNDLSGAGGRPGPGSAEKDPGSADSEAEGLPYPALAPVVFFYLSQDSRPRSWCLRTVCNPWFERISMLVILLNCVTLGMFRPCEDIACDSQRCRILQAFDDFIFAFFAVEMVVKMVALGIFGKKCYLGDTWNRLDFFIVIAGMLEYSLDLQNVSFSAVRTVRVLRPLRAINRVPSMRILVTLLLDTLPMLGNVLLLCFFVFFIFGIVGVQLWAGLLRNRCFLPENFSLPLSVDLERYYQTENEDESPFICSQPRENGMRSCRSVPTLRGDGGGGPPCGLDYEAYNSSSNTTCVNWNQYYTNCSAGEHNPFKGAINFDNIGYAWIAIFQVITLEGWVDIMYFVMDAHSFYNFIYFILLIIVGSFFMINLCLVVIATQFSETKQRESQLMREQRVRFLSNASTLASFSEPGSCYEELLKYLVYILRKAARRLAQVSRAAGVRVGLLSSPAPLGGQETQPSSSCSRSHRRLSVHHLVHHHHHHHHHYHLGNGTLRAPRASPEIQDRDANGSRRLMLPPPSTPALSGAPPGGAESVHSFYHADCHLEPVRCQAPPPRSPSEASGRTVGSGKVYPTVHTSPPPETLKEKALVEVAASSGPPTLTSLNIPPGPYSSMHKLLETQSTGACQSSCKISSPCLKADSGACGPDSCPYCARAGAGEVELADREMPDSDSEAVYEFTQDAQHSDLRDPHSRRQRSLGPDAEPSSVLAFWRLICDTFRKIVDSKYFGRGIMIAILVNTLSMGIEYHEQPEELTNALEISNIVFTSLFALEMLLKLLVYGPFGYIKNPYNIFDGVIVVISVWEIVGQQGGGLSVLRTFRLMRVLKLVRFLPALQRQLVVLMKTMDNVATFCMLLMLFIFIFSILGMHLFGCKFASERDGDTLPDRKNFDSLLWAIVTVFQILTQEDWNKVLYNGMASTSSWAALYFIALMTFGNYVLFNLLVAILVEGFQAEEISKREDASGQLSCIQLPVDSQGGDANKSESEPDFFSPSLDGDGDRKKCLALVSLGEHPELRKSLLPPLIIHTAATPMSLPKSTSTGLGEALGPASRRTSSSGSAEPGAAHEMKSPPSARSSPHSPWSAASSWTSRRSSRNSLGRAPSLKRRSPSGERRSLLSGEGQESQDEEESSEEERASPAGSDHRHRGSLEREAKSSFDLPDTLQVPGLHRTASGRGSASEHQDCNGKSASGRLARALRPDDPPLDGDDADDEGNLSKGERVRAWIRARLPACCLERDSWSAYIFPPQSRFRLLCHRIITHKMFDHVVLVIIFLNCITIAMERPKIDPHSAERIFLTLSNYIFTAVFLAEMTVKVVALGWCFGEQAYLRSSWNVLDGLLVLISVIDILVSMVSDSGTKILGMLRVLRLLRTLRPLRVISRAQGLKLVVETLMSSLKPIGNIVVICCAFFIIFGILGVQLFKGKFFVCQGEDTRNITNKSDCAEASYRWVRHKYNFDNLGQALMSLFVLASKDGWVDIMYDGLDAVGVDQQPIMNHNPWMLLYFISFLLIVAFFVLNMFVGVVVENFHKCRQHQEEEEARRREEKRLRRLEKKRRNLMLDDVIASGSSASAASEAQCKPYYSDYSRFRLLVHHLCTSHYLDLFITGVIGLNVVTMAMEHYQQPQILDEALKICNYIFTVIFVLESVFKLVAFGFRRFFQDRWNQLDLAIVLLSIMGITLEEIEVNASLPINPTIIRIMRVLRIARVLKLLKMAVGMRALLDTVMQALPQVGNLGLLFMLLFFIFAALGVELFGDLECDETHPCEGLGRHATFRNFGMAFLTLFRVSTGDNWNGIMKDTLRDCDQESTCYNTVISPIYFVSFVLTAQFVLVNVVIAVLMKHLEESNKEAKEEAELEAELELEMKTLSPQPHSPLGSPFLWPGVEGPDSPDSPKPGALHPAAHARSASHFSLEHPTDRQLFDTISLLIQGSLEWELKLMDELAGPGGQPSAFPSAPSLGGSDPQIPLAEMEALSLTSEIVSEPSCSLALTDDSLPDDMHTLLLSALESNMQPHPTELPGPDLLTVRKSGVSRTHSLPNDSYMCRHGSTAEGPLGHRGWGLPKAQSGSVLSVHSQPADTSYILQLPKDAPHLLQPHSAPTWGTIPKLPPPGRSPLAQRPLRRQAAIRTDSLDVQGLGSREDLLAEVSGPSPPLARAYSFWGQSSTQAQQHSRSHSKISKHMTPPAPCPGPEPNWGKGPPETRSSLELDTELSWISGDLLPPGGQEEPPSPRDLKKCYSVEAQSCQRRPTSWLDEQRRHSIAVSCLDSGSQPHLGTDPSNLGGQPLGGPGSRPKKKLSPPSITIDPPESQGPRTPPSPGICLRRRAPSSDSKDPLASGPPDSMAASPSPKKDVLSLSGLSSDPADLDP
Everything with inhibition lower than 20% is 0 (no); everything else, including exactly 20%, is 1 (yes).

molecule	discrete label
Cc1ccc2nc(CN3CCN(C(=O)CC(c4ccc(C(F)(F)F)cc4)c4cccc(F)c4)CC3)oc2c1 (stereo not drawn)	1 (yes)

Task: Record O=C(CC(c1ccc(F)cc1)c1cccc(F)c1)N1CCN(Cc2nc(C(=O)N3CCOCC3)co2)CC1 (stereo not drawn) ; criterion: inhibition no lower than 20%. Met?
Result: 1 (yes)

Task: Record O=C(CC(c1ccc(Cl)cc1)c1cccc(F)c1)N1CCN(Cc2nc(CO)co2)CC1 (stereo not drawn) ; criterion: inhibition no lower than 20%. Met?
Result: 0 (no)

Task: Record COC(=O)c1coc(CN2CCN(C(=O)CC(c3ccc(F)cc3)c3ccc(Br)cc3)CC2)n1 (stereo not drawn) ; criterion: inhibition no lower than 20%. Met?
Result: 1 (yes)
